Test system: MAPKAPK2
Conditions: concentration: 1 μM, replicates: in singlicate; n = 1;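 further: KINOMEscan kinase panel screen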
resultType: %Inh (%)
Write down the numeric answer in % and omit the unit.

Measured %Inh for this entry COC(=O)Nc1nc2cc(Oc3ccc(NC(=O)Nc4cc(C(F)(F)F)ccc4F)cn3)ccc2[nH]1.Cl.Cl on MAPKAPK2: 0

Measured %Inh for this entry COc1ccc(Nc2nccc(N3CCC(NC(=O)Nc4cccc(OC)c4)C3)n2)cc1 (centres unmarked) on MAPKAPK2: 9

Measured %Inh for this entry COc1ccc(-c2coc3ccc(-c4nnc(SCc5ccc(OC)c(C(F)(F)F)c5)o4)cc23)cc1 on MAPKAPK2: 0

Measured %Inh for this entry O=C(Nc1ccccc1F)NC1CCN(c2ccnc(Nc3ccc(F)cc3)n2)CC1 on MAPKAPK2: 6

Measured %Inh for this entry Cc1ccc(S(=O)(=O)Nc2ccc(Nc3nccc(Nc4cccc5[nH]ncc45)n3)cc2)cc1 on MAPKAPK2: 0

Measured %Inh for this entry COc1cc(Nc2nccc(N3CCC(NC(=O)c4cc5ccccc5s4)C3)n2)cc(OC)c1OC (centres unmarked) on MAPKAPK2: 0

Measured %Inh for this entry COc1cccc(C2=C(Nc3ccc(Cl)c(C(=O)O)c3)C(=O)NC2=O)c1 on MAPKAPK2: 26

Measured %Inh for this entry CC(C)(C)c1ccc2nccc(Nc3cccc(O)c3)c2c1 on MAPKAPK2: 11

Measured %Inh for this entry Clc1ccc(-c2nn3ncccc3c2-c2ccnc(Nc3ccc4c(c3)OCCO4)n2)cc1 on MAPKAPK2: 0

Measured %Inh for this entry COCCOCCOc1cc2ncc3c4ccc(C#N)cc4[nH]c3c2cc1OC on MAPKAPK2: 0

Measured %Inh for this entry CC(C)c1nc(-c2cccc(NS(=O)(=O)c3c(F)cccc3F)c2F)c(-c2ccnc(Nc3ccc(N4CCOCC4)nc3)n2)s1 on MAPKAPK2: 0

Measured %Inh for this entry Cl.Cl.NCC(C(=O)Nc1cc(Br)c(-c2ccnc3[nH]ccc23)s1)c1ccccc1 (centres unmarked) on MAPKAPK2: 0

Measured %Inh for this entry CN1CCN(Cc2cccc(-c3ccc4c(Nc5ccc(Oc6ccccc6)cc5)ccnc4c3)c2)CC1 on MAPKAPK2: 3

Measured %Inh for this entry O=C(Nc1cccc(-c2nn3ccccc3c2-c2ccnc(Nc3cccc(F)c3)n2)c1)c1c(F)ccc(F)c1Cl on MAPKAPK2: 14

Measured %Inh for this entry CCc1ccc(-c2ccc3c(c2)-c2c(cnn2C)S(=O)(=O)N3C)cc1 on MAPKAPK2: 13

Measured %Inh for this entry CNC(=O)c1ccccc1Nc1nc(Nc2ccc(N3CCOCC3)cc2)ncc1Cl.Cl on MAPKAPK2: 0

Measured %Inh for this entry Oc1cc(Nc2ccnc3cc(I)ccc23)ccc1F on MAPKAPK2: 24

* * *

Would you mind telling me the reported %Inh of each entry?
System: MEK3
Construct: gene MAP2K3
Settings: concentration: 1 μM, replicates: in singlicate; n = 1
Write down the numeric answer in % and omit the unit.

GET /value?item= Cc1ccc(C(=O)N2CC[C@@H](O)C2)cc1-n1c(C)cc(OCc2ccc(F)cc2F)c(Br)c1=O &field=%Inh returns 0

GET /value?item= COc1cc(Nc2nccc(N3CCC(NC(=O)c4cc5ccccc5s4)C3)n2)cc(OC)c1OC (stereo not shown) [GSK1379760] &field=%Inh returns 3

GET /value?item= COc1ccc(Nc2nccc(NCCNC(=O)c3cc4ccccc4s3)n2)cc1 [GSK1379896] &field=%Inh returns 0

GET /value?item= COc1cc(Nc2nccc(N3CCC(NC(=O)Nc4cccc(C(C)=O)c4)C3)n2)cc(OC)c1OC (stereo not shown) [GSK1379753] &field=%Inh returns 0

* * *

Would you mind telling me the reported %Inh of each entry?
Tested on: CDK7
Settings: concentration: 1 μM, replicates: in singlicate; n = 1
Write down the numeric answer in % and omit the unit.

GET /value?item= COc1cccc(C2=C(Nc3ccc(Cl)c(C(=O)O)c3)C(=O)NC2=O)c1 [SB-390769] &field=%Inh returns 0

GET /value?item= Cc1ccc(C(=O)Nc2ccc(Nc3ccnc4cc(-c5nccs5)ccc34)cc2O)cc1.Cl [GW494702] &field=%Inh returns 9

GET /value?item= Cn1cc(-c2ccc3c(c2)CCN3C(=O)Cc2cccc(Cl)c2)c2c(N)ncnc21 [GSK2606590] &field=%Inh returns 0

GET /value?item= O=c1[nH]cc(-c2ccc(N3CCOCC3)cc2)c2sc(-c3cn[nH]c3)cc12 [GSK2276055] &field=%Inh returns 2

* * *

Test system: TAK1
Construct: gene MAP3K7
Details: concentration: 1 μM, replicates: in singlicate; n = 1
// boundary case: %Inh equal to 4% maps to Not satisfied; strictly smaller maps to Satisfied

Bench note: check whether Cc1cccc(NC(=O)Nc2ccc(Oc3ncnc4ccn(C)c34)cc2)c1 shows %Inh below 4%
Satisfied

Bench note: check whether Cl.c1ccc(-c2ccc3c(Nc4ccc5[nH]ncc5c4)ccnc3c2)nc1 shows %Inh below 4%
Satisfied

Bench note: check whether COc1cccc(C2=C(Nc3ccc(Cl)c(C(=O)O)c3)C(=O)NC2=O)c1 shows %Inh below 4%
Satisfied

Bench note: check whether CN(c1ccc(NC(=O)Nc2cc(C(F)(F)F)ccc2F)cc1)c1ccnc(Nc2ccc(S(N)(=O)=O)cc2)n1 shows %Inh below 4%
Not satisfied

Bench note: check whether Cn1cc(-c2ccc3c(c2)CCN3C(=O)Cc2cccc(Cl)c2)c2c(N)ncnc21 shows %Inh below 4%
Not satisfied

Bench note: check whether Nc1ncnc2c1nc(-c1ccccc1)n2-c1ccccc1 shows %Inh below 4%
Not satisfied

Bench note: check whether Cl.Cl.NCC(NCc1ccc(-c2ccnc3[nH]ccc23)s1)c1ccccc1 (stereo not drawn) shows %Inh below 4%
Not satisfied

Bench note: check whether Nc1ncc(-c2ccc3nccc(-c4ccncc4)c3c2)cc1S(=O)(=O)N1CCOCC1 shows %Inh below 4%
Satisfied

Bench note: check whether CN1CCN(Cc2cccc(-c3ccc4c(Nc5ccc(Oc6ccccc6)cc5)ccnc4c3)c2)CC1 shows %Inh below 4%
Not satisfied

Bench note: check whether O=C(O)C(F)(F)F.O=C(O)C(F)(F)F.O=c1[nH]ccc2nc(N[C@@H]3CCCNC3)nc(Nc3ccc(S(=O)(=O)N4CCOCC4)cc3)c12 shows %Inh below 4%
Not satisfied

Bench note: check whether Cn1cc(-c2ccc3c(c2)CCN3C(=O)Cc2cccc(F)c2)c2c(N)ncnc21 shows %Inh below 4%
Not satisfied

Bench note: check whether NCCCC(NC(=O)c1cc(Br)c(-c2ccnc3[nH]ccc23)s1)c1ccccc1.O=C(O)C(F)(F)F.O=C(O)C(F)(F)F (stereo not drawn) shows %Inh below 4%
Satisfied

Bench note: check whether CCn1c(-c2nonc2N)nc2c(C#CC(C)(C)O)nc(OC[C@H](N)c3ccccc3)cc21 shows %Inh below 4%
Not satisfied

Bench note: check whether Cl.NC(=O)c1cccc(Nc2nccc(Nc3ccc(Oc4c(Cl)cccc4Cl)c(Cl)c3)n2)c1 shows %Inh below 4%
Satisfied

Bench note: check whether Oc1cc(Nc2ccnc3cc(I)ccc23)ccc1F shows %Inh below 4%
Satisfied

Bench note: check whether Cl.c1ccc(-c2ccc3c(Nc4ccc5[nH]ccc5c4)ccnc3c2)nc1 shows %Inh below 4%
Satisfied

Bench note: check whether O=C(Nc1cccc(-c2nn3ccccc3c2-c2ccnc(Nc3cccc(F)c3)n2)c1)c1c(F)ccc(F)c1Cl shows %Inh below 4%
Satisfied

Bench note: check whether CNC(=O)c1ccccc1Nc1nc(Nc2ccc(N3CCOCC3)cc2)ncc1Cl.Cl shows %Inh below 4%
Not satisfied

Bench note: check whether Clc1ccc(-c2nn3ncccc3c2-c2ccnc(Nc3ccc4c(c3)OCCO4)n2)cc1 shows %Inh below 4%
Satisfied

Bench note: check whether COc1ccc(Nc2nccc(NCCNC(=O)c3cc4ccccc4s3)n2)cc1 shows %Inh below 4%
Satisfied

Bench note: check whether CC(=O)Nc1nc2cnc(Nc3cc(NC(=O)c4cccc(C5(C#N)CC5)c4Cl)ccc3C)nc2s1 shows %Inh below 4%
Satisfied

Bench note: check whether CSc1cccc2c(-c3ccncn3)c(-c3ccc(F)cc3)nn12 shows %Inh below 4%
Not satisfied

Bench note: check whether COc1cc(Nc2nccc(-c3c(-c4cccc(NC(=O)c5c(F)cccc5F)c4)nn4ccccc34)n2)cc(OC)c1OC shows %Inh below 4%
Not satisfied

Bench note: check whether CC(C)(C)c1ccc2nccc(Nc3cccc(O)c3)c2c1 shows %Inh below 4%
Not satisfied

Bench note: check whether CN(C)S(=O)(=O)c1cc(-c2ccc3nccc(-c4cccc(S(N)(=O)=O)c4)c3c2)cnc1N shows %Inh below 4%
Satisfied

Bench note: check whether O=C(Nc1n[nH]c2nc(-c3ccc(O)cc3)ccc12)C1CC1 shows %Inh below 4%
Not satisfied

* * *

Test system: RAF1
Conditions: concentration: 1 μM, replicates: in singlicate; n = 1
Would you mind telling me the reported %Inh of each entry?
Write down the numeric answer in % and omit the unit.

GET /value?item= Cc1ccc(C(=O)N2CC[C@@H](O)C2)cc1-n1c(C)cc(OCc2ccc(F)cc2F)c(Br)c1=O &field=%Inh returns 25

GET /value?item= C[C@@H]1CC[C@@H](C(=O)Nc2ccccc2)CN1c1cc(-c2ccc3c(N)n[nH]c3c2)nc(N)n1 [GSK2286062] &field=%Inh returns 2

GET /value?item= Cl.Cl.NCC(NCc1ccc(-c2ccnc3[nH]ccc23)s1)c1ccccc1 (stereo not shown) [GSK1321565] &field=%Inh returns 2

GET /value?item= Cl.c1ccc(-c2ccc3c(Nc4ccc5[nH]ncc5c4)ccnc3c2)nc1 [GW440137] &field=%Inh returns 15

GET /value?item= Cc1ccc(C)c(NC(=O)NC2CCN(c3ccnc(Nc4ccc(F)cc4)n3)C2)c1 (stereo not shown) [GSK1379720] &field=%Inh returns 14

GET /value?item= CN1CCN(Cc2cccc(-c3ccc4c(Nc5ccc(Oc6ccccc6)cc5)ccnc4c3)c2)CC1 [GW578342] &field=%Inh returns 0

GET /value?item= O=c1[nH]cc(-c2ccc(N3CCOCC3)cc2)c2sc(-c3cn[nH]c3)cc12 [GSK2276055] &field=%Inh returns 0

GET /value?item= CSc1cccc2c(-c3ccncn3)c(-c3ccc(F)cc3)nn12 [GW514786] &field=%Inh returns 4

GET /value?item= COc1ccc(CNC(=O)NC2CCN(c3ccnc(Nc4ccc(F)cc4)n3)CC2)cc1 [GSK1379788] &field=%Inh returns 7

GET /value?item= Nc1n[nH]c2cnc(-c3ccccc3)cc12 [SB-642124] &field=%Inh returns 11

GET /value?item= c1ccc(-c2cnc3nccnn23)cc1 [AH20685] &field=%Inh returns 7

GET /value?item= COc1cccc(C(=O)Nc2cccc(Oc3ccc4nc(NC(=O)C5CC5)cn4n3)c2)c1 &field=%Inh returns 96.8

GET /value?item= NCCCC(NC(=O)c1cc(Br)c(-c2ccnc3[nH]ccc23)s1)c1ccccc1.O=C(O)C(F)(F)F.O=C(O)C(F)(F)F (stereo not shown) [GSK1287544] &field=%Inh returns 0
